- experimental target: EED (1-441)-His protein (Homo sapiens)
- Construct: 20 nM EED (1-441)-His protein
- method description: EED-H3K27Me3 peptide competition binding assay by AlphaScreen
- experimental parameters: EED Alpha screen binding assay; read-out: Alpha screen
Measured pIC50 accompanies every entry in the list below.
Just so you know, pIC50 here is -log10 of the concentration in molar units; reply with that number alone.

Consider the following illustrative entries.
| mol | experimental target | pIC50 |
| --- | --- | --- |
| O=C1c2ncn3c(NCc4c(F)ccc5c4CCO5)ncc(c23)-c2sccc2CN1C1CC1 | EED (1-441)-His protein (Homo sapiens) | 7.95 |
| Cc1ccc(-c2cnc(NCc3c(F)ccc4c3CCO4)n3cnc(P(C)(C)=O)c23)c(C)n1 | EED (1-441)-His protein (Homo sapiens) | 8.32 |
| Cn1cc(-c2cnc(NCc3c(F)ccc4c3CCO4)n3cnc(S(C)(=O)=O)c23)cn1 | EED (1-441)-His protein (Homo sapiens) | 9.25 |

# context switch: different compound, same pIC50
GET /value?item= `CP(C)(=O)c1ncn2c(NCc3c(F)ccc4c3CCO4)ncc(-c3ccc(C(F)F)nc3)c12` &field=pIC50 returns 9.72

---

- experimental target: EED (1-441)-His protein (Homo sapiens, UniProt O75530)
- Construct: 20 nM EED (1-441)-His protein
- Sequence (O75530 whole entry): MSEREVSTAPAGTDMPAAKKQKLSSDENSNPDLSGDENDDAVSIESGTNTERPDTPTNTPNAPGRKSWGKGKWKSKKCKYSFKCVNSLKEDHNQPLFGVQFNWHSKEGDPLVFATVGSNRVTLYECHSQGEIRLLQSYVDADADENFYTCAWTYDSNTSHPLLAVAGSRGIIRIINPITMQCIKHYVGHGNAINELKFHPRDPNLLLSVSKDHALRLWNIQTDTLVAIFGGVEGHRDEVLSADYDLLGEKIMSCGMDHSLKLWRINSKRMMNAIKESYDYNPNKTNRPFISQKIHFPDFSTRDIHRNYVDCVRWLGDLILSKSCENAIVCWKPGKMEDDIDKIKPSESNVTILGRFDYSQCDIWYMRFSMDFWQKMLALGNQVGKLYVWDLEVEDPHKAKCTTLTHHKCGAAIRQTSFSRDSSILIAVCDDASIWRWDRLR
- method description: EED-H3K27Me3 peptide competition binding assay by AlphaScreen
- experimental parameters: EED Alpha screen binding assay, IC50 class; read-out: Alpha screen
assay endpoint: IC50

Consider the following illustrative entries.
| compound | experimental target | IC50 |
| --- | --- | --- |
| Cc1ncccc1-c1cc(C#N)c(NCc2c(F)ccc3c2CCO3)n2cnc(S(C)(=O)=O)c12 [E 27] | EED (1-441)-His protein (Homo sapiens, UniProt O75530) | 10 to 100 nM |
| [2H]C([2H])([2H])c1ccc2c(n1)CN(CC(F)(F)F)C(=O)c1ncn3c(NC([2H])([2H])c4c(F)ccc5c4CCO5)ncc-2c13 [E 21] | EED (1-441)-His protein (Homo sapiens, UniProt O75530) | < 10 nM |

GET /value?item= [2H]C1Oc2ccc(F)c(C([2H])([2H])Nc3ncc4c5c(ncn35)C(=O)N(CC(F)(F)F)Cc3nc(C([2H])([2H])[2H])ccc3-4)c2C1[2H] (centres unmarked) [E 23] &field=IC50 returns < 10 nM

GET /value?item= CC(C)N1Cc2cc(C(F)(F)F)ncc2-c2cnc(NCc3c(F)ccc4c3CCO4)n3cnc(c23)C1=O [E 40] &field=IC50 returns < 10 nM

GET /value?item= O=C1c2ncn3c(NCc4c(F)ccc5c4CCO5)ncc(c23)-c2ccc(C3COC3)nc2CN1CC(F)(F)F [E 51] &field=IC50 returns < 10 nM

---

Measured IC50 accompanies every entry in the list below.
- experimental target: EED (1-441)-His protein (Homo sapiens, UniProt O75530)
- Construct: 20 nM EED (1-441)-His protein
- method description: EED-H3K27Me3 peptide competition binding assay by AlphaScreen
- experimental parameters: EED Alpha screen binding assay; read-out: Alpha screen
Answer format: numeric, nM implied, no suffix.

Consider the following illustrative entries.
| mol | unit string | IC50 |
| --- | --- | --- |
| CCP(=O)(CC)c1ncn2c(NCc3c(F)ccc4c3CCO4)ncc(-c3ccc(F)cc3)c12 | nM | 8.04 |
| CS(=O)(=O)c1ccc(-c2cnc(NCc3c(F)ccc4c3CCO4)n3cnc(C(F)(F)F)c23)cc1 | nM | 0.83 |
| Cc1nc(C(F)(F)F)ccc1-c1cnc(NCc2c(F)ccc3c2CCO3)n2cnc(S(C)(=O)=O)c12 | nM | 0.53 |

GET /value?item= `Cc1ccc(-c2cnc(NCc3c(F)ccc4c3CCO4)n3cnc(S(C)(=O)=O)c23)c(C)n1` &field=IC50 returns 0.421

---

- System: Pfeiffer cell line
- method description: Anti-proliferative activity, Pfeiffer cell line, 7 day treatment
- Type: cell-based
- experimental parameters: anti-proliferative IC50, Pfeiffer cell line, 7 day treatment; read-out: Pfeiffer Cell line
- Description: “N/A” stands for “not assessed”. To assess the effect of PRC2 inhibition on cell growth, cells were seeded in 96-well cell culture plates at a density of 2 000-3 000 cells/well in 200 µL of culture medium, and treated with serially diluted compounds for 7 days at 37° C. in an atmosphere of 5% CO2. Cell growth was evaluated by a […] WST-8 assay (Dojindo Molecular Technologies) using a Tecan Infinite M1000 multimode microplate reader (Tecan, Morrisville, NC). […]
assay endpoint: pIC50
Just so you know, pIC50 here is -log10 of the concentration in molar units; reply with that number alone.

GET /value?item= `O=C1c2ncn3c(NCc4c(F)ccc5c4CCO5)ncc(c23)-c2sccc2CN1C1CC1` &field=pIC50 returns 10.74

---

- experimental target: EED (1-441)-His protein (Homo sapiens)
- Construct: 20 nM EED (1-441)-His protein
- method description: EED-H3K27Me3 peptide competition binding assay by AlphaScreen
- experimental parameters: EED Alpha screen binding assay; read-out: Alpha screen
assay endpoint: IC50 (nM)
Answer format: numeric, nM implied, no suffix.

Consider the following illustrative entries.
| mol | experimental target | assay endpoint | meas value |
| --- | --- | --- | --- |
| CCP(=O)(CC)c1ncn2c(NCc3c(F)ccc4c3CCO4)ncc(-c3ccc(C(F)(F)F)nc3)c12 | EED (1-441)-His protein (Homo sapiens) | IC50 | 1.15 |
| CP(C)(=O)c1ncn2c(NCc3c(F)ccc4c3CCO4)ncc(-c3ccc(F)cc3)c12 | EED (1-441)-His protein (Homo sapiens) | IC50 | 0.27 |
| Cc1cc(S(C)(=O)=O)ccc1-c1cnc(NCc2c(F)ccc3c2CCO3)n2cnc(S(C)(=O)=O)c12 | EED (1-441)-His protein (Homo sapiens) | IC50 | 0.47 |

GET /value?item= `Fc1ccc2c(c1CNc1ncc(-c3ccc(C(F)(F)F)cc3)c3c(C(F)(F)F)ncn13)CCO2` &field=IC50 returns 0.98

GET /value?item= `CCP(=O)(CC)c1ncn2c(NCc3c(F)ccc4c3CCO4)ncc(-c3ccc(S(C)(=O)=O)cc3)c12` &field=IC50 returns 0.31

GET /value?item= `Cc1ccc(-c2cnc(NCc3c(F)ccc4c3CCO4)n3cnc(C(F)(F)F)c23)c(C)n1` &field=IC50 returns 2.35

---

- experimental target: EED (1-441)-His protein (Homo sapiens, UniProt O75530)
- Construct: 20 nM EED (1-441)-His protein
- method description: EED-H3K27Me3 peptide competition binding assay by AlphaScreen
- experimental parameters: EED Alpha screen binding assay; read-out: Alpha screen
assay endpoint: IC50 (nM)
Answer format: numeric, nM implied, no suffix.

| mol | assay endpoint | meas value |
| --- | --- | --- |
| Fc1ccc2c(c1CNc1ncc(-c3ccc(C(F)(F)F)nc3)c3c(C(F)(F)F)ncn13)CCO2 | IC50 | 1.98 |
| CS(=O)(=O)c1ncn2c(NCc3c(F)ccc4c3CCO4)ncc(-c3ccc(C4CC4)nc3)c12 | IC50 | 0.34 |
| CCP(=O)(CC)c1ncn2c(NCc3c(F)ccc4c3CCO4)ncc(-c3ccc(C(F)(F)F)cc3)c12 | IC50 | 0.31 |
| CS(=O)(=O)c1ncn2c(NCc3c(F)ccc4c3CCO4)ncc(-c3ccc(F)cc3)c12 | IC50 | 0.59 |
| CS(=O)(=O)c1ncn2c(NCc3c(F)ccc4c3CCO4)ncc(-c3ccc(C(F)(F)F)nc3)c12 | IC50 | 0.62 |

GET /value?item= `CP(C)(=O)c1ncn2c(NCc3c(F)ccc4c3CCO4)ncc(-c3ccc(C(F)(F)F)nc3)c12` &field=IC50 returns 0.2

GET /value?item= `Fc1ccc(-c2cnc(NCc3c(F)ccc4c3CCO4)n3cnc(C(F)(F)F)c23)cc1` &field=IC50 returns 1.48

GET /value?item= `CCP(=O)(CC)c1ncn2c(NCc3c(F)ccc4c3CCO4)ncc(-c3ccc(C)nc3C)c12` &field=IC50 returns 27.6
